All figures here come from paper doi:10.1101/2023.08.31.555806v1.

# TESTED_ON: VraS (GST-VraS) (Staphylococcus aureus, UniProt Q7A2Q0)
# Sequence (Q7A2Q0 1-347): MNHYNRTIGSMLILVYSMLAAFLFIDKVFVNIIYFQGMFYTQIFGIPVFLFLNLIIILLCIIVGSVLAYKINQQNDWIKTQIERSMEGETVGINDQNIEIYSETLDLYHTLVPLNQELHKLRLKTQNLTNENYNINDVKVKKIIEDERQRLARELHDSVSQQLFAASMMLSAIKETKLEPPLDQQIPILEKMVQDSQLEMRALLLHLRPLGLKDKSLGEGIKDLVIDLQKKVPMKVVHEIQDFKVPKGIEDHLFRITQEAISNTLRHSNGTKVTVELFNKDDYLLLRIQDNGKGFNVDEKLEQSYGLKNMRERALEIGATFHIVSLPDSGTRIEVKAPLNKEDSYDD
QUANTITY_KIND: IC50
Field note: include the unit after the figure.

Req: What IC50 value was documented for this compound, CCSc1nc2ccc(NC(=O)NC(c3cc(C)ccn3)C3CC3)cc2o1 (stereo not shown) ?
Resp: 940 nM
